Assay: NCI Yeast Anticancer Drug Screen. Data for the mec2-1 strain (AID 157)
Conditions: S. cerevisiae mec2-1 strain, at 50.0 µM (retest, dose inferred, filed as 5.0), active compounds read high
Compounds without any hit were thinned out: in the full panel of roughly 79,000, 15% have a hit.
readout_label: growth inhibition (%)
Please give a number only; it is taken to be in %.

compound	growth inhibition (%)
Oc1cc(Cl)c(Cl)cc1Cl.[Cu+2]	98
Oc1c(Cl)cc(Cl)c2ccccc12	38
Cc1cc(CCN)c(C)c2c1sc1ccccc12	100
Cc1cc(C)c(C[N+](C)(C)C)c(C)c1C	99
Cc1[cH-]c(=O)n(-c2ccccc2)n1.[Au+].[Au].c1ccc([PH+](c2ccccc2)c2ccccc2)cc1.c1ccc([PH+](c2ccccc2)c2ccccc2)cc1	96

Problem: Look up growth inhibition for this compound: OC1C2[C@@H](O)CCCN2C[C@@H](O)[C@H]1O (some centres not stated)
Result: 13

Problem: Same question, O=C(N/N=C(/CCN1CCCC1)CC(c1ccccc1)c1c(O)c2ccccc2oc1=O)c1ccncc1 (configuration not stated) this time
Result: -4

Problem: Similarly, COC(=O)C1ON(c2ccccc2)C2c3ccccc3-c3ccccc3C12 (configuration not stated) ?
Result: 62

Problem: Repeat for the following compound: O=C1C=C(N2CC2)C(=O)C(N2CC2)=C1N1CC1
Result: 99

Problem: Now this one: [C-]#[O+].[C-]#[O+].[Mo].c1ccc([PH+](CC[PH+](c2ccccc2)c2ccccc2)c2ccccc2)cc1.c1ccc([PH+](CC[PH+](c2ccccc2)c2ccccc2)c2ccccc2)cc1
Result: 52

Problem: Try Cc1ccc2c(-c3ccccc3)c3ccccc3[s+]c2c1 next.
Result: 100

Problem: And the next one, CC[PH+](CC)CC[S-].CC[PH+](CC)CC[S-].[Au+].[Au+] ?
Result: 18

Problem: // repeat for CNC1C(O)CC(OC2C/C=C(\C)C/C(C)=C/C=C/CCC(C)CNC(=O)/C=C/C=C/C2C)OC1C (configuration not stated) and report
Result: 100

Problem: # repeat for CCSc1nc(=[N+]2CCCC2)ss1
Result: 100

Problem: Do the same for Cc1sc(Cc2ccccc2)nc1-c1ccc(N=Cc2ccc(N(CCCl)CCCl)cc2)cc1 please
Result: 98

Problem: Please do the same for C[CH2][Sn]([Cl])([CH2]C)[CH2]C as well.
Result: 84

Problem: And for CC(=O)OCC1(N2CCCC2)CCCCC1 ?
Result: -3

Problem: Request: C1OCC2[CH2][Hg][S][Hg][CH2]C1O2
Result: 97

Problem: Okay, and CC(=O)CC(=O)Nc1c(C)[c]([Hg][O]C(C)=O)c(C)[c]([Hg][O]C(C)=O)[c]1[Hg][O]C(C)=O ?
Result: 94

Problem: Another compound to look at: N#CC(C#N)=Cc1ccc(Cl)o1
Result: 47

Problem: // same read-out, input: Cc1ccc(NC(=O)CBr)cc1
Result: 100

Problem: Same lookup for ClC1=C(Cl)C2(Cl)C(Cl)CC1(Cl)C2(Cl)Cl (configuration not stated) , please.
Result: -1

---

Assay: NCI Yeast Anticancer Drug Screen. Data for the sgs1 mgt1 strain (AID 161);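 further: 0% = growth of cultures given vehicle only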
Details: S. cerevisiae sgs1 mgt1 strain, at 5.0 µM (retest, dose inferred, filed as 0.5), active compounds read high
This is part of a sample that, as a whole, favours compounds with a hit. Of some 79,000 tested, about 15% had one in any assay.
readout_label: growth inhibition (%)
Express it in %; write the number only.

Example entries and their recorded answers appear below.
compound	growth inhibition / %
CC12OOC(c3ccccc31)c1c2ccc2ccccc12 (stereo unspecified)	92
CC[CH2][Pb]([CH2]CC)([CH2]CC)[NH]S(=O)(=O)c1ccc(C)cc1	99
Nc1ccc(Br)cc1C(=O)c1ccccc1	32
NCCCN1CCN(CCCN2CC2)CC1	-1
O=C1c2ccccc2CCC1Br (stereo unspecified)	-3

Problem: # query: growth inhibition of entry CCOP(=O)(OCC)/C(C#N)=C/c1cccc(F)c1
Result: -2

Problem: And for C[C@]12CC[C@H]3[C@@H](CCC4=CC(=O)CC[C@@H]43)[C@@H]1CC[C@@H]2OC(=O)N(CCCl)N=O ?
Result: 67

Problem: # iterate: CN1CCN(c2ccc3nc(-c4ccc5nc(-c6ccc(N(C)CCCl)cc6)[nH]c5c4)[nH]c3c2)CC1
Result: -7

Problem: And the next one, CCCC(C)c1ccccc1OP(=S)(S)Oc1ccccc1C(C)CCC (stereo unspecified) ?
Result: 2

Problem: Queued: COC1CC(OC2C(C)OC(OC3C(C)OC(OC4CCC5(C)C(=CCC6(O)C5CC(OC(=O)c5ccc(O)cc5)C5(C)C(O)(C(C)=O)CCC65O)C4)CC3OC)CC2OC)OC(C)C1O (stereo unspecified) (tested in a mixture with another compound)
Result: 1

Problem: Next: O=C(CBr)OCC(O)CCl (stereo unspecified)
Result: 96

Problem: Okay, and O=[N+]([O-])c1ccc(Br)c([N+](=O)[O-])c1 ?
Result: 8

Problem: Could you do the same for C1CCC(NCC2CCCO2)CC1 (stereo unspecified) , please?
Result: -1

Problem: Same lookup for O=C([O-])C(F)(F)C(F)(F)F.[C-]#[O+].[C-]#[O+].[C-]#[O+].[C-]#[O+].[C-]#[O+].[Re] , please.
Result: 12

Problem: What do you get for NC(=O)Nc1ccc([As](Sc2ccccc2C(=O)O)Sc2ccccc2C(=O)O)cc1 ?
Result: -3

Problem: Now consider O=NN(CC(=O)O)c1ncccn1 .
Result: -2

Problem: How about this compound: CCC(=O)C(CCN1CCC(N2C(=O)C(CCC#N)c3ccccc32)CC1)(c1ccccc1)c1ccccc1 (stereo unspecified)
Result: 8

Problem: Try this compound next: CCCCCCCC[N+]12CN3CN(CN(C3)C1)C2
Result: -6

Problem: // query: OCC1N2CCC(CC2)C1(O)O (stereo unspecified)
Result: -3

Problem: Also need O=C1[O][Hg][c]2c1cccc2[N+](=O)[O-] , thanks.
Result: 100

Problem: Then what about the compound COC12c3c(C)cc(O)c4c(=O)occ(c34)C(=O)C1C13COC(=O)c4c(O)cc(C)c(c41)C(=O)C2C3OC(C)=O (stereo unspecified) ?
Result: 69

---

Assay: NCI Yeast Anticancer Drug Screen. Data for the cln2 rad14 strain (AID 165);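 further: 0% = growth equal to vehicle treated cultures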
Conditions: S. cerevisiae cln2 rad14 strain, at 50.0 µM, active compounds read high
This is part of a sample that, as a whole, favours compounds with a hit. Of some 79,000 tested, about 15% had one in any assay.
readout_label: growth inhibition (%)
Respond numerically; units are % and should not be typed.

compound	growth inhibition / %
CC1(C)N=C(N)N=C(N)N1c1ccc(OCCCCNC(=O)Nc2ccc(S(=O)(=O)F)cc2)c(Cl)c1	97.3

Next compound, growth inhibition to be filled in.
Problem: # lookup: growth inhibition of CC(C)[CH2][Sn]([CH2]C(C)C)([CH2]C(C)C)[C](C)(C)C
Result: 99.2

---

Test: NCI Yeast Anticancer Drug Screen. Data for the cln2 rad14 strain (AID 165);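 further: 0% = growth equal to vehicle treated cultures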
Settings: S. cerevisiae cln2 rad14 strain, at 50.0 µM, active compounds read high
Compounds without any hit were thinned out: in the full panel of roughly 79,000, 15% have a hit.
Listing of recorded growth inhibition by entry.
A number alone suffices; assume %.

Problem: Fill in the blank: the reported growth inhibition of CCCCCCCCCC(=O)[O][Hg][c]1ccccc1 is ____.
Result: 99.4

Problem: Thanks! And CCOS(=O)OCC ?
Result: 17.9

Problem: Input C/C(=N\N1CN(C(C)C(=O)O)P(N(CCO)CCO)N=C1N)c1cccs1 (stereo not given)
Result: -18.6

Problem: Do the same for NC(=O)C(Cl)(Cl)Cl please
Result: 4.95

Problem: Input CC(C)Oc1ccccc1OC(=O)N(C)C=O
Result: -18

Problem: Continue with CC(=O)OC1(c2nccc3ccccc23)CCN(Cc2ccccc2)CC1
Result: -8.3

---

Assay: NCI Yeast Anticancer Drug Screen. Data for the cln2 rad14 strain (AID 165);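 further: 0% = growth equal to vehicle treated cultures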
Details: S. cerevisiae cln2 rad14 strain, at 5.0 µM (retest, dose inferred, filed as 0.5), active compounds read high
Compounds without any hit were thinned out: in the full panel of roughly 79,000, 15% have a hit.
readout_label: growth inhibition (%)
Note: unit % is implicit; provide only the numeric part.

Problem: What value of growth inhibition has been reported for the following compound? OC1CCCC2CCCNC12 (stereo unspecified)
Result: 81

Problem: Another compound to check: Cc1ccc(NC(=O)CBr)cc1
Result: 97

Problem: O=C1CCC(=O)N1SC(Cl)(Cl)Cl , same question.
Result: -11

Problem: Also CC(=O)O[C@H]1C(=O)O[C@@H]2C[C@H]3C(C)=CC(=O)[C@@H](O)[C@]3(C)[C@H]3[C@@]4(O)OC[C@]32[C@@H]1[C@@H](C)[C@H]4O , if possible.
Result: 36

Problem: Likewise for O=C(Nc1n[c]([Hg][Cl])[c]([Hg][Cl])s1)OCc1ccccc1 ?
Result: 34

Problem: Note, next up: Cc1ccc(S(=O)(=O)/N=[Se](\C)c2ccccc2)cc1 (stereo unspecified)
Result: -1

Problem: Same again, this time with CC[C@@]1(O)C[C@H](OC2CC(N(C)C)C(O)C(C)O2)c2c(cc3c(c2O)C(=O)c2c(O)ccc(O)c2C3=O)[C@H]1C(=O)OC (stereo partly specified)
Result: 82

Problem: // repeat for O=[N+]([O-])O.[In] and report
Result: 3

Problem: Now try C[C@]12CC[C@H](OC3OC(CO)C(O)C(O)C3O)C[C@H]1CC[C@@H]1[C@@H]2CC[C@]2(C)[C@@H](C3=CCOC3=O)CC[C@]12O (stereo partly specified) .
Result: -11

Problem: Again, but for O=[N+]([O-])/C=C/c1c(Cl)cccc1Cl
Result: 99

Problem: Same question for C#CCN1C(=O)N(CC#C)C(=O)C(CC#C)(C(CC=C)c2ccccc2)C1=O (stereo unspecified) please.
Result: 16

Problem: Then N#CN(Cc1ccccc1)C(c1ccccc1)(c1ccccc1)c1ccccc1.[I][Sn]([c]1ccccc1)([c]1ccccc1)[c]1ccccc1 ?
Result: 99

Problem: What do we get for COC(=O)[CH2][Sn]([CH2]C(=O)OC)([c]1ccccc1)[c]1ccccc1 ?
Result: 52

Problem: Would you mind doing CC(=O)C(CN(C)Cc1ccccc1)C(c1ccccc1)c1c(O)c2ccccc2oc1=O (stereo unspecified) as well?
Result: -9

Problem: Also CCc1c[c]([Hg][Cl])c(CC)c(CC)c1CC ?
Result: 2

Problem: Then this compound: O=C(CBr)OCC(Br)CBr (stereo unspecified)
Result: 97

Problem: Repeat for the following compound: NC(=S)C1=C(N)Oc2c(c(=O)oc3ccccc23)C1c1ccc(Br)cc1 (stereo unspecified)
Result: 16

Problem: # repeat for COc1cc2c(cc1OC)C(OC)N(C)c1c-2ccc2cc3c(cc12)OCO3 (stereo unspecified)
Result: 16

Problem: Request: ClCC[Se](Cl)(Cl)c1ccccc1
Result: 25

Problem: Follow-up entry: CCCCCc1cc(O)c(CCCC)c(O)c1
Result: -47

Problem: Further, for O=C1C(C(Nc2ccccc2)c2ccccc2)=C([O-])c2ccccc21.O=C1C(C(Nc2ccccc2)c2ccccc2)=C([O-])c2ccccc21.[Co+2] (stereo unspecified) ?
Result: 41
